assayed-system: Alpha-2A adrenergic receptor (Homo sapiens, UniProt P08913)
Sequence (P08913 whole entry): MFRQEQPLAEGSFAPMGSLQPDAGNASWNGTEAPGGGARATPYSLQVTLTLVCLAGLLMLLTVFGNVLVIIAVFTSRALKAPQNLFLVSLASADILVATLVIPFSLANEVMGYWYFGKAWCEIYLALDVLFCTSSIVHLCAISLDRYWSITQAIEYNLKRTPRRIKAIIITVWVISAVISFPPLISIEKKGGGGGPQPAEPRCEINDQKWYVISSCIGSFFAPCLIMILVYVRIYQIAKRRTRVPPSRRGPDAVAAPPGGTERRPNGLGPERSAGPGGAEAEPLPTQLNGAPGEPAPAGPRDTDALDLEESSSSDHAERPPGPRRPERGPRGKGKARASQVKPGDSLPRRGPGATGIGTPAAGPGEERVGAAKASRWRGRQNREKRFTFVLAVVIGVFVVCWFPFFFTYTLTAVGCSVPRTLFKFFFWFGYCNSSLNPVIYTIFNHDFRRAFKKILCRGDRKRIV
experimental-endpoint: Ki (µM)
Just the number in µM, nothing appended.

Record O=C(CCCN1C2CCC1CC(O)(c1ccc(Cl)cc1)C2)c1ccc(F)cc1 (stereo unspecified) has Alpha-2A adrenergic receptor (Homo sapiens, UniProt P08913) Ki equal to 2.83
